The origin of these recorded values is patent US20260116920A1.

Known Kd of a selection of compounds
Molecular target: human transferrin receptor (hTfR) (Homo sapiens, UniProt P02786)
Construct: made in house
Sequence (P02786 89-760 limits assumed): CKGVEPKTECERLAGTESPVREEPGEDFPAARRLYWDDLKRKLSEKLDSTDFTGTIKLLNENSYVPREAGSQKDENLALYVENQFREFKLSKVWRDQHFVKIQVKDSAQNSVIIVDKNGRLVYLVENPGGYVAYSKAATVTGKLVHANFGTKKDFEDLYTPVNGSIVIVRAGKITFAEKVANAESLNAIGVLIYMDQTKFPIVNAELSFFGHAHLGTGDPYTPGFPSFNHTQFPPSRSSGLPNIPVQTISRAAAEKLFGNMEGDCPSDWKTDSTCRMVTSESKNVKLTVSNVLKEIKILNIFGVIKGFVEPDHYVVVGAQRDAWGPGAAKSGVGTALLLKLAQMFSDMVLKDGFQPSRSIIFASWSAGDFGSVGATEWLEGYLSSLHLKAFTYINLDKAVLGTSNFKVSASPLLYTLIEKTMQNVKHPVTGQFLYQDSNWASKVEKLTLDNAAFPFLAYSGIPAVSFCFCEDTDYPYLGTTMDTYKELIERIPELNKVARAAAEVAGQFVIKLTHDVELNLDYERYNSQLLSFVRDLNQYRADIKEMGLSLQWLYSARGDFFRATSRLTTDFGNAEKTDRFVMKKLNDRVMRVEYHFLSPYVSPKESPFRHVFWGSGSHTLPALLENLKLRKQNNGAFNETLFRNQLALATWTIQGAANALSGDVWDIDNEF
Assay: Evaluation of molecular interaction between transferrin receptor (hTfR) and peptide using surface plasmon resonance (SPR)
Format: binding
Settings: KD class for binding to hTfR by SPR; peptide with the linker shown in the same line; 'low signal indicates no activity'; read-out: SPR

CC[C@H](C)[C@@H]1NC(=O)[C@H](Cc2ccc(OCC(=O)O)cc2)NC(=O)[C@H](Cc2ccc(O)cc2)NC(=O)[C@H](CC(N)=O)NC(=O)[C@H](Cc2cn(CC(=O)O)c3ccccc23)NC(=O)[C@H](C(C)C)NC(=O)[C@H](Cc2cccc(Cl)c2)N(C)C(=O)[C@H](C(C)C)NC(=O)[C@H](C)NC(=O)CSC[C@@H](C(=O)NCCOCCOCCOCCOCCC(N)=O)NC(=O)[C@H](Cc2ccc(O)cc2)N(C)C(=O)[C@H](Cc2ccccc2)NC(=O)[C@H](CCCNC(=N)N)NC(=O)[C@H](CCCCNC(=O)OC)NC(=O)[C@H]([C@@H](C)CC)NC1=O: < 1 nM
CC[C@H](C)[C@@H]1NC(=O)[C@H](Cc2ccc(OC)cc2)NC(=O)[C@H](Cc2ccc(O)cc2)NC(=O)[C@H](CC(N)=O)NC(=O)[C@H](Cc2cn(CC(=O)O)c3ccccc23)NC(=O)[C@H](C(C)C)NC(=O)[C@H](Cc2cccc(Cl)c2)N(C)C(=O)[C@H](C(C)C)NC(=O)[C@H](C)NC(=O)CSC[C@@H](C(=O)NCCOCCOCCOCCOCCC(N)=O)NC(=O)[C@H](Cc2ccc(O)cc2)N(C)C(=O)[C@H](Cc2ccncc2)NC(=O)[C@H](CCCNC(=N)N)NC(=O)[C@H](CCCNC(=N)N)NC(=O)[C@H]([C@@H](C)CC)NC1=O: 1 to 100 nM
CC[C@H](C)[C@@H]1NC(=O)[C@H](Cc2ccc(OC)cc2)NC(=O)[C@H](Cc2ccc(O)cc2)NC(=O)[C@H](CC(N)=O)NC(=O)[C@H](Cc2c[nH]c3ccc(Cl)cc23)NC(=O)[C@H](C(C)C)NC(=O)[C@H](Cc2ccccc2)N(C)C(=O)[C@H](C(C)C)NC(=O)[C@H](C)NC(=O)CSC[C@@H](C(=O)NCC(=O)N[C@@H](CCCCN=[N+]=[N-])C(N)=O)NC(=O)[C@H](Cc2ccc(O)cc2)N(C)C(=O)[C@H](Cc2ccccc2)NC(=O)[C@H](CCCNC(=N)N)NC(=O)[C@H](CCCNC(=N)N)NC(=O)[C@H]([C@@H](C)CC)NC1=O: 1 to 100 nM
CC[C@H](C)[C@@H]1NC(=O)[C@H](Cc2ccc(OCC(=O)O)cc2)NC(=O)[C@H](Cc2ccc(O)cc2)NC(=O)[C@H](CC(N)=O)NC(=O)[C@H](Cc2cn(CC(=O)O)c3ccccc23)NC(=O)[C@H](C(C)C)NC(=O)[C@H](Cc2cccc(Cl)c2)N(C)C(=O)[C@H](C(C)C)NC(=O)[C@H](C)NC(=O)CSC[C@@H](C(=O)NCCOCCOCCOCCOCCC(N)=O)NC(=O)[C@H](Cc2ccc(O)cc2)N(C)C(=O)[C@H](Cc2ccccc2)NC(=O)[C@H](CCCNC(=N)N)NC(=O)[C@H](CCCCN2CCOCC2)NC(=O)[C@H]([C@@H](C)CC)NC1=O: < 1 nM
CC[C@H](C)[C@@H]1NC(=O)[C@H](Cc2ccc(OCC(=O)O)cc2)NC(=O)[C@H](Cc2ccc(O)cc2)NC(=O)[C@H](CC(N)=O)NC(=O)[C@H](Cc2cn(CC(=O)O)c3ccccc23)NC(=O)[C@H](C(C)C)NC(=O)[C@H](Cc2cccc(Cl)c2)N(C)C(=O)[C@H](C(C)C)NC(=O)[C@H](C)NC(=O)CSC[C@@H](C(=O)NCCOCCOCCOCCOCCC(N)=O)NC(=O)[C@H](Cc2ccc(O)cc2)N(C)C(=O)[C@H](Cc2ccccc2)NC(=O)[C@H](CCCCNC(=O)OC)NC(=O)[C@H](CCCNC(=N)N)NC(=O)[C@H]([C@@H](C)CC)NC1=O: 1 to 100 nM
CC[C@H](C)[C@@H]1NC(=O)[C@H](Cc2ccc(OC)cc2)NC(=O)[C@H](Cc2ccc(N)nc2)NC(=O)[C@H](CC(N)=O)NC(=O)[C@H](Cc2cn(CC(=O)O)c3ccccc23)NC(=O)[C@H](C(C)C)NC(=O)[C@H](Cc2cccc(Cl)c2)N(C)C(=O)[C@H](C(C)C)NC(=O)[C@H](C)NC(=O)CSC[C@@H](C(=O)NCC(=O)N[C@@H](CCCCN=[N+]=[N-])C(N)=O)NC(=O)[C@H](Cc2ccc(O)cc2)N(C)C(=O)[C@H](Cc2ccncc2)NC(=O)[C@H](CCCNC(=N)N)NC(=O)[C@H](CCCNC(=N)N)NC(=O)[C@H]([C@@H](C)CC)NC1=O: 1 to 100 nM

# input // Kd lookup, key: CC[C@H](C)[C@@H]1NC(=O)[C@H](Cc2ccc(OCC(=O)O)cc2)NC(=O)[C@H](Cc2ccc(O)cc2)NC(=O)[C@H](CC(N)=O)NC(=O)[C@H](Cc2cn(CC(=O)O)c3ccccc23)NC(=O)[C@H](C(C)C)NC(=O)[C@H](Cc2cccc(Cl)c2)N(C)C(=O)[C@H](C(C)C)NC(=O)[C@H](C)NC(=O)CSC[C@@H](C(=O)NCCOCCOCCOCCOCCC(N)=O)NC(=O)[C@H](Cc2ccc(O)cc2)N(C)C(=O)[C@H](Cc2ccccc2)NC(=O)[C@H](CCC(=O)NCCO)NC(=O)[C@H](CCCNC(=N)N)NC(=O)[C@H]([C@@H](C)CC)NC1=O
# output 1 to 100 nM

# input Item under review: CC[C@H](C)[C@@H]1NC(=O)[C@H](Cc2ccc(OC)cc2)NC(=O)[C@H](Cc2ccc(O)cc2)NC(=O)[C@H](CC(N)=O)NC(=O)[C@H](Cc2c[nH]c3ccc(Cl)cc23)NC(=O)[C@H](C(C)C)NC(=O)[C@H](Cc2ccc(F)cc2)N(C)C(=O)[C@H](C(C)C)NC(=O)[C@H](C)NC(=O)CSC[C@@H](C(=O)NCC(=O)N[C@@H](CCCCN=[N+]=[N-])C(N)=O)NC(=O)[C@H](Cc2ccc(O)cc2)N(C)C(=O)[C@H](Cc2ccccc2)NC(=O)[C@H](CCCNC(=N)N)NC(=O)[C@H](CCCNC(=N)N)NC(=O)[C@H]([C@@H](C)CC)NC1=O . Reported Kd?
# output 1 to 100 nM
